Values were extracted from patent US20020146411A1.

# tested.target: recombinant human Factor IX (rhFIX, Genetics Institute) (human) (UniProt P00740)
# Sequence (P00740 47-461 limits assumed): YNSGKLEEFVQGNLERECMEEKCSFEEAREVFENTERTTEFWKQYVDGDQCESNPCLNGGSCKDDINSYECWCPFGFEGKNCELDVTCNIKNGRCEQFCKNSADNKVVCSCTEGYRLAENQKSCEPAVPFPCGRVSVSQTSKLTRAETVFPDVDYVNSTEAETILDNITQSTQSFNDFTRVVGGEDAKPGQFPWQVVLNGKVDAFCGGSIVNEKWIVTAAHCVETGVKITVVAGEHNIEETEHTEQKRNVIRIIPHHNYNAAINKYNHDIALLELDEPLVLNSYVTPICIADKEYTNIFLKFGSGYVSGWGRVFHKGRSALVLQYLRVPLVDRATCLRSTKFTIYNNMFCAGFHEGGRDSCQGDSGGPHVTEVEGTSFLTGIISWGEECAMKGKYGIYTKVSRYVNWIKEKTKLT
# protocol.text: titration calorimetry, 37° C., 10 mM CaCl2
Entries annotated with measured pKd
Please keep in mind that pKd is minus log10 of the molar concentration; only the number is needed.

Would you please look over these solved cases?
>  <binder>
humanized anti-Factor IX monoclonal antibody SB 257732 (antibody, V domains shown) VH: QIQLVQSGSELKKPGASVKVSCKASGYTFTNYGMNWVRQAPGQGLEWMGWINTRNGKSTYVDDFKGRFVFSLDTSVSTAYLQISSLKAEDTAVYFCTREGNMDGYFPFTYWGQGTLVTVSS VL: QIVLTQSPSSLSASVGDRVTITCRASSSVNYMHWYQQKPGKAPKPWIYATSNLASGVPSRFSGSGSGTDYTLTISSLQPEDFATYYCQQWSINPRTFGGGTKLEIKR

>  <pKd>
8.05

$$$$
>  <binder>
humanized anti-Factor IX monoclonal antibody SB 249415 (antibody, V domains shown) VH: QVQLVQSGSELKKPGASVKVSCKASGYTFTNYGMNWVRQAPGQGLKWMGWINTRNGKSTYVDDFKGRFVFSLDSSVSTAYLQISSLKADDTAVYYCTREGNMDGYFPFTYWGQGTLVTVSS VL: EIVLTQSPATLSLSPGERATLSCRASSSVNYMHWYQQRPGQAPKPWIYATSNLASGVPARFSGSGSGTDFTLTISSLEPEDFAVYYCQQWSINPRTFGGGTKVEIKR

>  <pKd>
8.15

$$$$
>  <binder>
humanized anti-Factor IX monoclonal antibody SB 249413 (antibody, V domains shown) VH: QVQLVQSGSELKKPGASVKVSCKASGYTFTNYGMNWVRQAPGQGLEWMGWINTRNGKSTYVDDFKGRFVFSLDTSVSTAYLQISSLKADDTAVYYCAREGNMDGYFPFTYWGQGTLVTVSS VL: EIVLTQSPATLSLSPGERATLSCRASSSVNYMHWYQQRPGQAPRLLIYATSNLASGIPARFSGSGSGTDFTLTISSLEPEDFAVYYCQQWSINPRTFGGGTKVEIKR

>  <pKd>
7.92

$$$$

Q: Please give the measured pKd for this binder: humanized anti-Factor IX monoclonal antibody SB 249417 (antibody, V domains shown) VH: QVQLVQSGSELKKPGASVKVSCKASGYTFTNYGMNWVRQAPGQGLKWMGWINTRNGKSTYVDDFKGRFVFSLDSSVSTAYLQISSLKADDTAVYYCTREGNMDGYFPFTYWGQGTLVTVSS VL: QIVLTQSPSSLSASVGDRVTITCRASSSVNYMHWYQQKPGKAPKPWIYATSNLASGVPSRFSGSGSGTDYTFTISSLQPEDIATYYCQQWSINPRTFGQGTKVEIKR
Result: 7.92
